Ca^2+ Mobilization % Inh @ 10 μM for assorted compounds
biological target: GPR73 (prokineticin 1 receptor) (Homo sapiens); construct: expressed in transfected cells; host or cells: HEK 293; assay: PK1 functional assay: Ca2+ mobilization screening for PK1 antagonists on the FLIPR; format: cell-based; settings: 10 μM compound; HEK 293 GPR73 cells; multiple values = multiple testing; 10 µM
Sequence (Q8TCW9 whole entry, species assumed): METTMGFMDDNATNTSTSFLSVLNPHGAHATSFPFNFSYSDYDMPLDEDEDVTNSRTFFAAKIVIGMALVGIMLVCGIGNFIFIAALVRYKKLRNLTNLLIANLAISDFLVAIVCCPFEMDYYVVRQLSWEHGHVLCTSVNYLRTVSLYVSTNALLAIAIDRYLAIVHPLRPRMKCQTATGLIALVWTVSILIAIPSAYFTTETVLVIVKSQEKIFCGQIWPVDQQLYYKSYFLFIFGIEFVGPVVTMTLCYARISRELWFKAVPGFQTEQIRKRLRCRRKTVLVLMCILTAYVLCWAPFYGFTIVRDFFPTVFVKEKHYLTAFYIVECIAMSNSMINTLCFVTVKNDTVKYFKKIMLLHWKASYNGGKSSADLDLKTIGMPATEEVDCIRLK
The figure you give is taken to be in %; do not add the unit.

> print(dat)
                            chemical.smiles  unit.annotation  endpoint.result
1  COc1ccc(Cn2c(=O)nc(NCc3cccnc3N)n(Cc3ccc4c(c3)CCO4)c2=O)cc1                %               99

Ask: Can you look up Ca^2+ Mobilization % Inh @ 10 μM on GPR73 (prokineticin 1 receptor) (Homo sapiens) for COc1ccc(Cn2c(=O)nc(NCc3cnc(C)cc3C)n(Cc3ccc4c(c3)CCO4)c2=O)cc1 ?
Reply: 98

Ask: And what about the compound Cc1cc(C)c(CNc2nc(=O)n(Cc3ccc4c(c3)nnn4C)c(=O)n2Cc2ccc(OC(F)F)cc2)c(N)n1 ?
Reply: 96

Ask: And what about the compound COc1ccc(Cn2c(NCCc3ccccn3)nc(=O)n(Cc3ccc(OC)cc3)c2=O)cc1 ?
Reply: 80

Ask: And what about the compound Cc1cc(C)c(CNc2nc(=O)n(Cc3ccc4occc4c3)c(=O)n2Cc2ccc(OC(F)F)cc2)c(N)n1 ?
Reply: 99

Ask: And what about the compound COc1ccc(Cn2c(=O)nc(NCc3c(C)cc(C)nc3N)n(Cc3ccc4c(c3)CCO4)c2=O)cc1 ?
Reply: 96

Ask: And what about the compound Cc1cc(C)c(CNc2nc(=O)n(Cc3ccc4c(c3)OCO4)c(=O)n2Cc2ccc(OC(F)F)cc2)c(N)n1 ?
Reply: 97
